Source listed as PubChem BioAssay (Tox21).

# experiment_description: Caspase-3/7 induction in HepG2 cells by small molecules, qHTS assay (AID 1346978); also: nearly all actives have a fitted effect of over 15% in size
# experimental_parameters: HepG2 caspase-3/7 activation, Caspase-Glo luminescence, 17 h; series mostly up to 92.4 µM
Inconclusive results are not listed. Active and inactive are the calls of the source. Calls follow the shape of the dose curve; as a rule, active = well fitted activation curve with a large enough effect in the repeat runs; inconclusive = weak or mixed curves; inactive = flat fitted curve, though single readings scatter.
measurement_label: outcome

CN1CC(=O)N2[C@H](c3ccc4c(c3)OCO4)c3[nH]c4ccccc4c3C[C@@H]2C1=O = inactive
CS(=O)(=O)c1ccc(-c2cn3ccccc3n2)cc1 = inactive
NCCNCCO = inactive

----------
# experiment_description: qHTS assay to identify small molecule agonists of the androgen receptor (AR) signaling pathway in the presence of an antagonist - cell viability counter screen (AID 1259379); also: nearly all actives have a fitted effect of over 25% in size
# experimental_parameters: MDA-kb2 viability, CellTiter-Fluor, 16 h; series mostly up to 92.4 µM
Results filed as inconclusive are left out. The source made the active and inactive calls. Calls follow the shape of the dose curve; as a rule, active = well fitted cell-killing curve with a large enough effect in the repeat runs; inconclusive = weak or mixed curves, or effect the other way; inactive = flat fitted curve, though single readings scatter.
Outcome field: choose from class 1 for active, class 0 for inactive

Tell me the recorded outcome of this test for CC(C)COCC(CN(Cc1ccccc1)c1ccccc1)N1CCCC1 (configuration not stated) .
class 1

Tell me the recorded outcome of this test for C=C1CCC2CC1C2(C)C (configuration not stated) .
class 0

Tell me the recorded outcome of this test for CC(C)Nc1cccnc1N1CCN(C(=O)c2cc3cc(NS(C)(=O)=O)ccc3[nH]2)CC1 .
class 0

Tell me the recorded outcome of this test for C=C(C)CCCC(C)CCO (configuration not stated) .
class 0

Tell me the recorded outcome of this test for CC(C)c1nc(CN(C)C(=O)N[C@H](C(=O)N[C@@H](Cc2ccccc2)C[C@H](O)[C@H](Cc2ccccc2)NC(=O)OCc2cncs2)C(C)C)cs1 .
class 0

Tell me the recorded outcome of this test for CCCCN1CCCC1C(=O)Nc1c(C)cc(C)cc1C (configuration not stated) .
class 0

Tell me the recorded outcome of this test for CC/C=C1/OC(=O)c2ccccc21 .
class 0

Tell me the recorded outcome of this test for Cc1cc(C)cc(N)c1 .
class 0

Tell me the recorded outcome of this test for O=c1[nH]ncc2ccccc12 .
class 0

Tell me the recorded outcome of this test for O=[N+]([O-])c1ccc(O/N=C/c2cc(Br)c(O)c(Br)c2)c([N+](=O)[O-])c1 .
class 1

Tell me the recorded outcome of this test for CCCCCCCC/C=C\CCCCCCCCCCCC(=O)O .
class 0

Tell me the recorded outcome of this test for Oc1cccc(O)c1O .
class 0

Tell me the recorded outcome of this test for C[C@@]12CCC[C@H]1[C@@H]1CC[C@H]3C[C@@H](O)CC[C@]3(C)[C@H]1CC2 .
class 0

Tell me the recorded outcome of this test for CCOC(=O)C1=C(C)NC(C)=C(C(=O)OC)C1c1cccc(Cl)c1Cl (configuration not stated) .
class 0

Tell me the recorded outcome of this test for CCCCCCCCC(CCCCCC)C(=O)O (configuration not stated) .
class 0

Tell me the recorded outcome of this test for CCC(OCCCOC)OC(C)=O (configuration not stated) .
class 0

Tell me the recorded outcome of this test for CCOC(=O)c1ccc(OCCN2C[C@H](O)[C@@H](O)[C@H](O)[C@H]2CO)cc1 .
class 0

----------
# experiment_description: A CellTox Green Cytotoxicity Assay to monitor cytotoxicity in HEK293 cells - 24 hour (AID 1224875); also: nearly all actives have a fitted effect of over 45% in size
# experimental_parameters: CellTox Green fluorescence; series mostly up to 76.8 µM
Inconclusive results are not listed. Active and inactive are the calls of the source. The call rests on the fitted dose curve; in most records, active means well fitted activation curve with a large enough effect in the repeat runs; inconclusive means weak or mixed curves; inactive means flat fitted curve, though single readings scatter.
Outcome field: choose from active, inactive

Tell me the recorded outcome of this test for CCCCCC[C@@H](O)C/C=C\CCCCCCCC(=O)OCC(O)CO (some centres undefined) .
inactive

Tell me the recorded outcome of this test for CC(O)c1ccccc1 (centres undefined) .
inactive

Tell me the recorded outcome of this test for CN1CCCC(CC2c3ccccc3Sc3ccccc32)C1 (centres undefined) .
active

Tell me the recorded outcome of this test for O=c1cc(-c2ccccc2)oc2ccc3ccccc3c12 .
inactive

Tell me the recorded outcome of this test for O=C(Cn1ccnc1[N+](=O)[O-])NCCO .
inactive

Tell me the recorded outcome of this test for CC1(C)[C@H](C(=O)O)N2C(=O)C[C@H]2S1(=O)=O .
inactive

Tell me the recorded outcome of this test for COC(=O)CCS .
inactive

Tell me the recorded outcome of this test for CCC(=O)C1CC(C(C)C)CC=C1C (centres undefined) .
inactive

Tell me the recorded outcome of this test for CO/N=C(/C(=O)N[C@@H]1C(=O)N2C(C(=O)O)=C(COC(N)=O)CS[C@H]12)c1ccco1 .
inactive

Tell me the recorded outcome of this test for CCCCOc1ccc(OCCCN2CCOCC2)cc1 .
inactive

Tell me the recorded outcome of this test for CC[N+](CC)(CCNC(=O)C(=O)NCC[N+](CC)(CC)Cc1ccccc1Cl)Cc1ccccc1Cl .
inactive

Tell me the recorded outcome of this test for NCCNCCO .
inactive

Tell me the recorded outcome of this test for c1ccc2sc(SN(C3CCCCC3)C3CCCCC3)nc2c1 .
inactive

Tell me the recorded outcome of this test for CCC(C)(C)OC .
inactive
